Below, each entry is listed with its recorded nonsense suppression.
B1: tRNA (parent)
chain: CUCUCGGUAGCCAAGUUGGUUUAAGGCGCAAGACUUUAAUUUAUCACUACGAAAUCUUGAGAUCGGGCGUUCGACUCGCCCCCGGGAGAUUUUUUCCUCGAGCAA

- Variants of: B1
- experiment: nonsense suppression (GFP-seq) (ratio to wild type); higher = more function; SUP4oc tRNA, yeast GFP reporter sort-seq
Variants at the floor of the assay were thinned out.
recorded-metric: nonsense suppression

# residues, comparison-sign, measured-number
data = [
    ("CUCUCGGUAGCCAAGUUGGUUUAAGGCGCAGGACUUUAAUUUAUCACUACGAAAUCUUGACAUCGGGCGUUCGACUCGCCCCCGGGAGAUUUUUUCCUCGAGCAA [A31G G61C]", "=", 0.275),
    ("CUCUCGGUAGCCAAGUUGGUUUAAGGUGCAAGACUUUAAUUUAUCACUACGAAAUCUUGAGGUCGGGCGUUCGACUCGCCCCCGGGAGAUUUUUUCCUCGAGCAA [C27U A62G]", "≤", 0.026),
    ("CUUUCGGUAGCCAAGUUGGUUUAAGGCGCAAGACUUUAAUUUAUCACUACGAAAUCUUGUGAUCGGGCGUUCGACUCGCCCCCGGGAGAUUUUUUCCUCGAGCAA [C3U A60U]", "=", 0.55),
    ("CUCUCGGUAGCUAAGUUGGUUUAAGUCGCAAGACUUUAAUUUAUCACUACGAAAUCUUGAGAUCGGGCGUUCGACUCGCCCCCAGGAGAUUUUUUCCUCGAGCAA [C12U G26U G84A]", "≤", 0.026),
    ("CUCUCGGUAGCCAAGUUGGUUCAAGGCGCCAUACUUUAAUUUAUCACUACGAAAUCUUGAGAUCGGGCGUUCGACUCGCCCGCGGGAGAUUUUUUCCUCGAGCAA [U22C A30C G32U C82G]", "≤", 0.026),
    ("CUCUCGGUCGCCAAGUUGGUUUAAGGCGCAAGACUUUAAUUUAUCACUACGAAAUCUUGAGAGCGGGCGUUCGACUCGCCCCCGGGAGAUUUUUUCCUCGAGCAA [A9C U63G]", "=", 0.0362),
    ("CUCUCGGUAGCCAAGUCGGUUUAAGGCGCAAGACUUUAAUUUAUCACUACGAAACCUUGAGAUCGGGCGUUCGACUCGCCCCCGGGAGAUUUUUUCCUCGAGCAA [U17C U55C]", "=", 0.444),
    ("CUCUCGGUAGCCAAGUUGGUUUAAGGCGCAAGACUUUAAUUUAUCACUACGAAAUCGUGAGAUCGGGCGUACGACUCGCCCCCGGGAGAUUUUUUCCUCGAGCAA [U57G U71A]", "≤", 0.026),
    ("CUCUCGGUAGCCAAGUUGGUGUAAGGCGCAAGACUUUAAUUUAUCACUACGAAAUCUUGAAAUCGGGCGUUCGACUCGCCCCCGGGAGAUUUUUUCCUCGAGCAA [U21G G61A]", "=", 0.237),
    ("CUCGCGGUAGCCAAGUGGGUUUAAGGCGCAAGACUUUAAUUUAUCACUACGAAAUCUUGAGAUCGGGCAUUCGACUCGCCCCCGGGAGAUUUUUUCCUCGAGCAA [U4G U17G G69A]", "≤", 0.026),
    ("CUCCCGGUAGCCAGGUUGGUUUAAGGCGCAAGACUUUAAUUUAUCACUACGAAAUCUUGAAAUCGGGCGUACGACUCGCCCCCGGGAGAUUUUUUCCUCGAGCAA [U4C A14G G61A U71A]", "≤", 0.026),
    ("CUCUCGGUAGCCAAGUUGGUUUAAGGCGCAAGACUUUAAUUUAUCACUACGAAAUCUUGUGAUCGGGCGUUCGACUCGCCCCCGGGGGAUUUUUUCCUCGAGCAA [A60U A87G]", "=", 1.02),
    ("CUCACGGUAGCCCAGUUGGUUUAAGGCGCAAGACUUUAAUUUAUCACUACGAAAUCUUGAGAUCGGGCGUUCGACUCGCCCCCGGGAGAUUUUUUCCUCGAGCAA [U4A A13C]", "=", 0.294),
    ("CUCUCGGUAGCCAAGUUGGUCUAAGGCGCAAGACUUUAAUUUAUCACUACGAAAUUUUGAGAUCGGGCGUUCGACUCGCCCCCGGGAGAUUUUUUCCUCGAGCAA [U21C C56U]", "=", 0.174),
    ("CUCUCGGUAGCCAAGUUGGUCUAAGGCGCAAGACUUUAAUUUAUCACUACGAAAUCUUGAGAUCGGGCGUUCGACUCGCCCUCGGGAGAUUUUUUCCUCGAGCAA [U21C C82U]", "=", 1.15),
    ("CUCUCGGUAGCCAAGUUGGUUUAAGGCGCAAGACUUUAAUUUAUCACUACGAAAUCUUGAGAACGGACGUUCGACUCGCCCCCGGGAGAUUUUUUCCUCGAGCAA [U63A G67A]", "≤", 0.026),
    ("CUCUCGGUAGCCCAGUUGGUUUAAGGCGCAAGACUUUAAUUUAUCACUACGAAAUCUUGCGAUCGGGCGUUCGACUCGCCCCCGGGAGAUUUUUUCCUCGAGCAA [A13C A60C]", "=", 0.29),
    ("CUCUCGGUAGCCAAGUUGGUUUAAGGCUCCAGGCUUUAAUUUAUCACUACGAAGUCUUGAGAUCGGGCGUUCGACCCGACCCCGGGAGAUUUUUUCCUCGAGCAA [G28U A30C A33G A54G U76C C79A]", "≤", 0.026),
    ("CACUCGGUAGCCAAGUUGGUUUAAGGCGCAAUAUUUUAAUUUAUCACUACGAAAUCUUGAGAUCGGGCGUUCGACUCGCCCCCGGGAGAUUUUUUCCUCGAGCAA [U2A G32U C34U]", "≤", 0.026),
    ("CUUUCGGUAGCCAAGUUGGUUUAAGGCGCAAGAUUUUAAUUUAUCACUACGAAAUCUUGAGAUCGGGCGUUCGACUCGCCCCCGGGAGAUUUUUUCCUCGAGCAA [C3U C34U]", "≤", 0.026),
    ("CUCUUGGUAGCCAAGUUGGUUUAAGGCGCAAGACUUUAAUUUAUCACUACGAAAUCUUGAGAUCGGGCGUUCGACACGACCCCGGGAGAUUUUUUCCUCGAGCAA [C5U U76A C79A]", "≤", 0.026),
    ("CUCUCGGUAGCCAAGUUGGUUUAAGGCGCAAGACUUUAAUUUAUCACUACGAAUUCUUGUGAUCGGGCGUUCGACUCGCCCCCGGGAGAUUUUUUCCUCGAGCAA [A54U A60U]", "=", 0.965),
]
